target_entity: T1, human MSLN-R1-his protein (human, UniProt Q13421 296-390)
T1 construct: Region 1 of human mesothelin, made in HEK293E cells, His-tagged; also called human MSLN-R1 protein; hMSLN-R1-his; not shown: His tag
T1 chain: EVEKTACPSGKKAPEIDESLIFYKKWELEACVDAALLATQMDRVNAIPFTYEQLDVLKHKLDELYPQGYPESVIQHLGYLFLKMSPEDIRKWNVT
experiment_summary: ELISA on coated MSLN-R1; antibody 0.1 nM
recorded_metric: log10(OD450) (log10 of the value in OD450)
Units before log transform: OD450; reported quantity: OD450; transform: log10.

Using the record for S009-F8-15.19 (antibody, human IgG1, kappa, V domains shown) VH: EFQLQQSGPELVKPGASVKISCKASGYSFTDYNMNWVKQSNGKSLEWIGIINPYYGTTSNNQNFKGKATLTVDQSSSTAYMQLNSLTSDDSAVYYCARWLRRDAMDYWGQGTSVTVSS VL: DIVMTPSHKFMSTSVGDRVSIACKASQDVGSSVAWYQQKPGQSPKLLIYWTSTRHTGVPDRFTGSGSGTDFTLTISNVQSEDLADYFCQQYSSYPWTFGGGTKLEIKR , state its measured log10(OD450).
-1.00

Using the record for S009-F8-33.12 (antibody, human IgG1, kappa, V domains shown) VH: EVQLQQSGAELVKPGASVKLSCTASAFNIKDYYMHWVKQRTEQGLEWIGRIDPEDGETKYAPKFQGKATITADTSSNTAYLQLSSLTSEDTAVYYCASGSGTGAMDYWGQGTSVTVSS VL: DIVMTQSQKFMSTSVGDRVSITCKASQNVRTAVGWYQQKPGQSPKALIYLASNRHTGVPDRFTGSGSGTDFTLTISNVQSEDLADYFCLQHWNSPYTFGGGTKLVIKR , state its measured log10(OD450).
0.20

Using the record for S009-F8-5.15 (antibody, human IgG1, kappa, V domains shown) VH: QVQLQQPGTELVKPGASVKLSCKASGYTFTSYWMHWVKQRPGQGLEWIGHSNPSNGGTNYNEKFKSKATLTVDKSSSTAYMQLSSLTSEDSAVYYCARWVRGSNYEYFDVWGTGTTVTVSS VL: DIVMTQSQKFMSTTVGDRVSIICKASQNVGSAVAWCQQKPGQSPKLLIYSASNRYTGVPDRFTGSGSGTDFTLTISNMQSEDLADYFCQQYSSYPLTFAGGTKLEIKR , state its measured log10(OD450).
-0.92

Using the record for S009-F8-22.23 (antibody, human IgG1, kappa, V domains shown) VH: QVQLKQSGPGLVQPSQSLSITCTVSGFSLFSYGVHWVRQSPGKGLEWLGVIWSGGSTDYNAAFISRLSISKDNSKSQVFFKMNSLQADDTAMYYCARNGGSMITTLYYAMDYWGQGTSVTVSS VL: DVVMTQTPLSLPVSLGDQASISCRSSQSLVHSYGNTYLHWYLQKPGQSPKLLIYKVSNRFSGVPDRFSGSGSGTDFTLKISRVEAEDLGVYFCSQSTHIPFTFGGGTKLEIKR , state its measured log10(OD450).
0.24

Using the record for S009-F8-24.14 (antibody, human IgG1, kappa, V domains shown) VH: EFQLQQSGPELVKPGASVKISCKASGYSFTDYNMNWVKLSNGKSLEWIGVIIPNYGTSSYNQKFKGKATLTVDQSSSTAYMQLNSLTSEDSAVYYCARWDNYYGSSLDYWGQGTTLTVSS VL: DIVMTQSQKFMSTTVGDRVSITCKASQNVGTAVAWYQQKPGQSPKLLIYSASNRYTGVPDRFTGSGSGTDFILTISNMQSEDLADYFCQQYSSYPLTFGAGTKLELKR , state its measured log10(OD450).
-0.19

The values you see were collected from patent US20250250357A1.
